# method-description: in vitro
# conditions: compound within ASFE extract
experimental-endpoint: Cross BBB potential

[[record]]
molecule = "O=C1c2c(O)cc(O)cc2O[C@H](c2ccc(O)cc2)[C@H]1O [Aromadendrin]"
result = "-"

[[record]]
molecule = "O=C(/C=C/c1ccc(O)cc1)O[C@@H](C(=O)O)[C@@H](O)C(=O)O [Coutaric acid]"
result = "-"

[[record]]
molecule = "O=C(O[C@@H]1Cc2c(O)cc(O)cc2O[C@@H]1c1ccc(O)c(O)c1)c1cc(O)c(O)c(O)c1 [(-)-Epicatechin gallate]"
result = "-"

[[record]]
molecule = "O=C(O)CCCCCCCCCCCCCCC(=O)O [Hexadecanedioic acid]"
result = "-"

[[record]]
molecule = "COc1cc(/C=C/C(=O)OC(C(=O)O)C(O)C(=O)O)ccc1O (stereo not shown) [Fertaric acid]"
result = "-"

[[record]]
molecule = "O=C(/C=C/c1ccc(O)c(O)c1)c1ccc(O)cc1O [Butein]"
result = "+ (log Pe > −6.5)"

[[record]]
molecule = "COc1cc(/C=C/C=O)cc(OC)c1O [Sinapaldehyde]"
result = "-"

[[record]]
molecule = "COc1cc(/C=C/C(=O)O)ccc1O [Ferulic acid]"
result = "-"

[[record]]
molecule = "COc1cc(C(=O)O)ccc1O [Vanillic acid]"
result = "+ (log Pe > −6.5)"

[[record]]
molecule = "COc1ccc([C@@H]2CC(=O)c3c(O)cc(O[C@@H]4O[C@H](CO[C@@H]5O[C@@H](C)[C@H](O)[C@@H](O)[C@H]5O)[C@@H](O)[C@H](O)[C@H]4O)cc3O2)cc1O [Hesperidin]"
result = "-"


Origin of measurements: paper PMC9243654
